Molecular target: T1, hFGFR4-Histag (human, UniProt P22455 22-365)
T1 construct: also called SABVA4614
T1 sequence (P22455 other isoform, or with tags, fused parts or gaps): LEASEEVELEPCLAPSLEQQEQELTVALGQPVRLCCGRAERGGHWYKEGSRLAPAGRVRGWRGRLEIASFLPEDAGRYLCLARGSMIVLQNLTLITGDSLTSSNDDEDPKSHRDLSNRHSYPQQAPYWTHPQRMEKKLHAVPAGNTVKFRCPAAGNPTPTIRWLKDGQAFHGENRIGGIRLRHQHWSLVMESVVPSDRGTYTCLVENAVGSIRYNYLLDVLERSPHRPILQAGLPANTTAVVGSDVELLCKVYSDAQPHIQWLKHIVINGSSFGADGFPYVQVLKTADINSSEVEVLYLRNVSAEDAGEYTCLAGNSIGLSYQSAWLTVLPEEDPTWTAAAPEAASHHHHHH
Experiment: SPR (BIAcore 3000)
Please provide measured Kd for the entries that follow.
Give the value in nM but do not write nM after it.

Sample anti-FGFR4 antibody clone 33 (human IgG1 format) (antibody, V domains shown, As for clone 8: human IgG1 format from HEK293; also called antibody 33) VH: EVQLLESGGGLVQPGGSLRLSCAASGFTFSTYWMAWVRQAPGKGLEWVSVIGPSGGMTVYADSVKGRFTISRDNSKNTLYLQMNSLRAEDTAVYYCARINSGSSHFDYWGQGTLVTVSS VL: QSVLTQPPSASGTPGQGVTISCSGSSSNIGSNSVNWYQQLPGAAPKLLIYSNNLRPSGVPARFSGSKSGTSASLAISGLRSEDEADYYCAAWDDGLDAYVVFGGGTKLTVLG ; Kd observed: 0.771

Sample anti-FGFR4 antibody clone 36 (human IgG1 format) (antibody, V domains shown, As for clone 8: human IgG1 format from HEK293; also called antibody 36) VH: EVQLLESGGGLVQPGGSLRLSCAASGFTFSHYWMGWVRQAPGKGLEWVSVISPSGGLTIYADSVKGRFTISRDNSKNTLYLQMNSLRAEDTAVYYCARSSGWALDAFDIWGQGTMVTVSS VL: QYELTQPPSASGTPGQRVTISCSGSSSNIGSNIVHWYQQLPGTAPKLLIYGNNQRPSGVPDRFSVSKSGSSASLAISGLQSEDEADYYCASWDDSLKAFYVFGTGTKVTVLG ; Kd observed: 2.62

Sample anti-FGFR4 antibody clone 8 (human IgG1 format) (antibody, V domains shown, also called antibody 8) VH: EVQLLESGGGLVQPGGSLRLSCAASGFTFSPYWMGWVRQAPGKGLEWVSVIWPSGGTTDYADSVKGRFTISRDNSKNTLYLQMNSLRAEDTAVYYCARVHPAGHNDHWGQGTLVTVSS VL: QSELTQPPSASGTPGQRVTISCSGGYSNMGSNYAHWYQQLPGTAPKLLIYNNNQRPSGVPDRFSGSKSGTSASLAISGLRSEDEADYYCAAWDDSLSGPVFGGGTKLTVLG ; Kd observed: 0.327

Sample anti-FGFR4 antibody clone 31 (human IgG1 format) (antibody, V domains shown, As for clone 8: human IgG1 format from HEK293; also called antibody 31) VH: EVQLLESGGGLVQPGGSLRLSCAASGFTFSRYFMKWVRQAPGKGLEWVSWISPSGGLTEYADSVKGRFTISRDNSKNTLYLQMNSLRAEDTAVYYCARASYGAWLDYWGQGTLVTVSS VL: DIQMTQSPSSLSLSPGERATLSCRASQSINRNLGWYQQKPGQAPRLLIYGASTRATGIPARFTGSGSGTEFSLTISSLQSEDYAIYYCQQYDNWPIIFGQGTRLEIKG ; Kd observed: 1.52
